cytotoxicity at 10 µM overview
# Protocol text: Toxicity liver stage against HepG2, at 10uM
# Assay type: cell-based
# Parameters: test concentration 10 uM, cell line HepG2-A16-CD81EGFP
# Conditions: human, HepG2-A16-CD81EGFP cells; read-out: INHIBITION
Note: unit % is implicit; provide only the numeric part.

Example cases with answers are listed next.
| Compound | Scale unit | cytotoxicity at 10 µM |
| --- | --- | --- |
| OC(COCc1ccc(Cl)cc1)CN1CC(n2cccn2)C1 (centres undefined) | % | -6.25 |
| CCOc1cc(F)ccc1NC(=O)NCC(c1cnn(C)c1)N(C)C (centres undefined) | % | 5.09 |
| COCCCNC(=O)CN(C)C(=O)c1ccc(-n2cccc2)cc1O | % | -13.5 |
| CCn1cnnc1CCNC(=O)c1ccc(Br)cc1F | % | -29.7 |
| CCc1nnc2n1CCN(C(=O)Cc1nc(-c3ccco3)oc1C)C2 | % | 1.19 |
| CCc1ncncc1C(=O)NC1CCc2nc(C)cn2C1 (centres undefined) | % | -17.3 |
| Cc1nc(C)n(CC2CCCCN2Cc2cn3ccccc3n2)n1 (centres undefined) | % | -4.47 |
| CC(C)NC(=O)[C@@H]1CN(Cc2ccc3c(c2)OCO3)C[C@H]2OCC[C@H]21 | % | 3.65 |
| CCn1cc(S(=O)(=O)Nc2nc3c(s2)CC(C)CC3)cn1 (centres undefined) | % | 9.88 |
| O=C([C@H]1C[C@H]2[C@H](CCN2Cc2cccs2)O1)N1CCOCC1 | % | 0.582 |

Next, consider the following compound.
Inquiry: If you can, please state the reported cytotoxicity at 10 µM value of CCN1CCC12CCN(C(=O)c1ccsc1)C2 (centres undefined) .
Reply text: -148

* * *

# Protocol text: Toxicity liver stage against HepG2, at 10uM
# Format: cell-based
# Design: test concentration 10 uM, cell line HepG2-A16-CD81EGFP
# Conditions: human, HepG2-A16-CD81EGFP cells; read-out: INHIBITION
Measure: cytotoxicity at 10 µM (%)
Note: unit % is implicit; provide only the numeric part.

| Compound | Value reported |
| --- | --- |
| Cn1cc(CN2CC[C@@H](O)[C@@H]2Cc2ccccc2)cn1 | -71.2 |
| Cc1ccc(CN2CCC[C@]3(C(=O)O)CN(C)C[C@@H]3C2)s1 | -106 |

Inquiry: If you can, please state the reported cytotoxicity at 10 µM value of `CCO[C@H]1C[C@@H](O)C12CCN(S(=O)(=O)c1ccccc1OC)CC2` .
Reply text: 2.01

Inquiry: If you can, please state the reported cytotoxicity at 10 µM value of `CCc1nc2ccccc2c(=O)n1CC1(O)CCN(C(=O)COC)CC1` .
Reply text: -2.76

Inquiry: If you can, please state the reported cytotoxicity at 10 µM value of COCCC1(CNC(=O)NCC2CCCN(C)C2)CCC1 (stereo unspecified) .
Reply text: -1.11

Inquiry: If you can, please state the reported cytotoxicity at 10 µM value of Cc1ncc(CNC(=O)N(CCCO)C2CCc3ccccc32)s1 (stereo unspecified) .
Reply text: -12.9

Inquiry: If you can, please state the reported cytotoxicity at 10 µM value of CCS(=O)(=O)NCC(Cc1cccc(F)c1)N1CCNC1=O (stereo unspecified) .
Reply text: -1.89

Inquiry: If you can, please state the reported cytotoxicity at 10 µM value of `NC(=O)CN(Cc1ccc(Br)cc1)C(=O)c1cnccn1` .
Reply text: 8.48

Inquiry: If you can, please state the reported cytotoxicity at 10 µM value of `CN(C)C(=O)N1C[C@@H]2CC[C@H]1CN(C1Cc3ccccc3C1)C2` .
Reply text: -0.581

Inquiry: If you can, please state the reported cytotoxicity at 10 µM value of Cc1ccsc1CCNC(=O)CCC1CCCCN1C (stereo unspecified) .
Reply text: -3.13

Inquiry: If you can, please state the reported cytotoxicity at 10 µM value of `Cn1cccc1C(=O)NC1(C(=O)NCC2CC2)CCCC1` .
Reply text: -3.29

* * *

# Protocol text: Toxicity liver stage against HepG2, at 10uM
# Type: cell-based
# Set-up: test concentration 10 uM, cell line HepG2-A16-CD81EGFP
# Conditions: human, HepG2-A16-CD81EGFP cells; read-out: INHIBITION
Measure: cytotoxicity at 10 µM (%)
Note: unit % is implicit; provide only the numeric part.

| Compound | Value reported |
| --- | --- |
| CN(Cc1ccsc1)C(=O)CN1CCOC(Cn2cncn2)C1 (configuration not stated) | -1.14 |
| N#Cc1cccc(N2CCCC(CO)(CCOc3ccccc3)C2)n1 (configuration not stated) | -47.2 |
| COc1ccccc1OCCC(=O)NC1CCc2nc(C)cn2C1 (configuration not stated) | -7.05 |
| O=C(CCn1cccn1)NCCOc1ncc(Cl)cc1Cl | -3.82 |
| COc1ccc2c(c1)nc1n2[C@@H](CNCc2ncccc2C)COC1 | 3.1 |

Inquiry: If you can, please state the reported cytotoxicity at 10 µM value of CC1=Nc2c(c(=O)[nH]n2C2CCCCC2)C(c2cccnc2)S1 (configuration not stated) .
Reply text: 6.72

* * *

# Protocol text: Toxicity liver stage against HepG2, at 10uM
# Type: cell-based
# Set-up: test concentration 10 uM, cell line HepG2-A16-CD81EGFP
# Conditions: human, HepG2-A16-CD81EGFP cells; read-out: INHIBITION
Measure: cytotoxicity at 10 µM (%)
Note: unit % is implicit; provide only the numeric part.

Example cases with answers are listed next.
| Molecule | cytotoxicity at 10 µM [%] |
| --- | --- |
| NC(=O)C1CCN(c2nc3nccc(-c4ccccn4)c3c(=O)[nH]2)CC1 | -9.24 |
| CCc1noc(CN2CCN(Cc3cccs3)CC2)n1 | -5.06 |
| Clc1cccnc1OC1CCNCC1 | -10.9 |
| CC(C)N1CCc2ncn(C(C)C)c2C1C(=O)NCCN1CCCC1 (centres undefined) | 3.11 |
| COCC(=O)N1CCC2(C1)c1ccccc1S(=O)(=O)N2C (centres undefined) | 3.57 |

Inquiry: If you can, please state the reported cytotoxicity at 10 µM value of CN(CC(C)(C)O)C1CCCN(Cc2noc(C3CC3)n2)C1 (centres undefined) .
Reply text: 0.85

Inquiry: If you can, please state the reported cytotoxicity at 10 µM value of `Cc1cc(C)nc(N2CC=C[C@@H]2C(=O)NCc2ccc3c(c2)OCO3)n1` .
Reply text: -8.49

* * *

cytotoxicity at 10 µM overview
# Protocol text: Toxicity liver stage against HepG2, at 10uM
# Assay type: cell-based
# Set-up: test concentration 10 uM, cell line HepG2-A16-CD81EGFP
# Conditions: human, HepG2-A16-CD81EGFP cells; read-out: INHIBITION
Answer with the number, then the unit.

Inquiry: If you can, please state the reported cytotoxicity at 10 µM value of `COCCCN(CCOC)C(=O)Nc1ccc(C)cc1C` .
Reply text: 4.16%

Inquiry: If you can, please state the reported cytotoxicity at 10 µM value of `CC(C)CN1CCn2c(COCc3cccnc3)nnc2C1` .
Reply text: 5.8%

Inquiry: If you can, please state the reported cytotoxicity at 10 µM value of `CN(C)CCCNc1ncnc2cccc(F)c12` .
Reply text: 9.66%

Inquiry: If you can, please state the reported cytotoxicity at 10 µM value of CCCn1cc(CN2CCC(c3[nH]ncc3S(C)(=O)=O)C2)cn1 (stereo not given) .
Reply text: 4.27%

Inquiry: If you can, please state the reported cytotoxicity at 10 µM value of Cc1csc(Nc2nccnc2C2CCCN2S(C)(=O)=O)n1 (stereo not given) .
Reply text: -3.69%

Inquiry: If you can, please state the reported cytotoxicity at 10 µM value of Cc1c(-c2n[nH]c3c2CN(CC2CCOC2)CC3)cccc1C(F)(F)F (stereo not given) .
Reply text: -43.2%

Inquiry: If you can, please state the reported cytotoxicity at 10 µM value of COc1cccc(N2CC3(CCN(c4ccc(C)nn4)C3)CC2=O)c1 (stereo not given) .
Reply text: 6.62%

* * *

cytotoxicity at 10 µM overview
# Protocol text: Toxicity liver stage against HepG2, at 10uM
# Format: cell-based
# Parameters: test concentration 10 uM, cell line HepG2-A16-CD81EGFP
# Conditions: human, HepG2-A16-CD81EGFP cells; read-out: INHIBITION
Note: unit % is implicit; provide only the numeric part.

Inquiry: If you can, please state the reported cytotoxicity at 10 µM value of `COC(=O)C1CCN(C(=O)c2ccc(NS(C)(=O)=O)c(C)c2)CC1` .
Reply text: -1.04

Inquiry: If you can, please state the reported cytotoxicity at 10 µM value of `NC(=O)C1=NN2C(=NS(=O)(=O)c3ccccc32)N1` .
Reply text: 7.58

Inquiry: If you can, please state the reported cytotoxicity at 10 µM value of `C[C@@H]1CN(C2(C(=O)N3CC[C@H](O)C3)Cc3ccccc3C2)C[C@H](C)O1` .
Reply text: -5.19

Inquiry: If you can, please state the reported cytotoxicity at 10 µM value of `CSCc1noc(CNS(=O)(=O)c2cccc(C(=O)NC3CC3)c2)n1` .
Reply text: -2.51
